Biological target: human Claudin18.2 (human)
Experiment: cell-based or functional assay

binder	display_unit	CDC % Relative activity
392A11C8 (antibody, V domains shown) VH: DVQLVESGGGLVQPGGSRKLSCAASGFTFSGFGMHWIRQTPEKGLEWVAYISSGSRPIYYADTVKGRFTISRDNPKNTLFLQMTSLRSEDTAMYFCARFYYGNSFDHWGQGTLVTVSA VL: DIVMTQSPSFLTVTAGEKVTMSCRSSQSLLNSGNQKNYLTWYQQKPGQPPKLLIYWASTRESGVPDRFTGSGSGTDFTLTISSVQAEDLALYYCQNAYSFPLTFGAGTKLELK	%	133
233D5E5 (antibody, V domains shown) VH: QAYLQQSGAELVRSGASVKMSCKASGYTFTSHNMHWVKQTPRQGLEWIGYIYPGNGDTNYNQKFKGKATLTADTSSSTAYMQISSLTSEDSAVYFCTRDYYGNSFAYWGQGTLVTVSA VL: DIVMTQSPSSLTEKAGERVSMSCKSSQSLFNSGNQKNYLTWYQQKPGQPPKLLIYWASTRESGVPDRFTGSGSGTDFTLTISSVQAEDLAVYYCQNAYWYPFTFGAGTKLELK	%	87.3
391F1G2 (antibody, V domains shown) VH: DVQLVESGGGLVQPGGSRKLSCAASGFTFSSFGMHWVRQAPEKGLEWVAYISSGSSPIYYADTVKGRFTISRDNPKNTLFLQMTSLRSEDTAMYFCARIYYGNSFAYWGQGTLVTVSA VL: DIVMTQSPSSLTVTAGEKVAMSCKSSQTLLNSGNQKNYLTWYQQKPGQPPKLLLYWASTRESGVPDRFTGSGSGTDFTLTISSVQAEDLAVYYCQNAYYYPLTFGSGTKLELK	%	176
